Hey, just so you know, these numbers are from the DeepSol protein solubility set.

Procedure Details: soluble on expression in E. coli; label from the status in PepcDB or PDB records
Experimental Endpoint: soluble on expression in E. coli

Worked set:
ordered_residues=MSLPAPQDPRNLPIRQQMEALIRRKQAEITQGLESIDTVKFHADTWTRGNDGGGGTSMVIQDGTTFEKGGVNVSVVYGQLSPAAVSAMKADHKNLRLPEDPKTGLPVTDGVKFFACGLSMVIHPVNPHAPTTHLNYRYFETWNQDGTPQTWWFGGGADLTPSYLYEEDGQLFHQLHKDALDKHDTALYPRFKKWCDEYFYITHRKETRGIGGIFFDDYDERDPQEILNMVEDCFDAFLPSYLTIVKRRKDMPYTKEEQQWQAIRRGRYVEFNLIYDRGTQFGLRTPGSRVESILMSLPEHASWLYNHHPAPGSREAKLLEVTTKPREWVKEGHHHHHH reported_result=soluble
ordered_residues=MAHHHHHHMALLEWARQDATMKSSLELYCGPASKDLMIMDIPANVAVDAYLWEGLLVAESMLEADGTLLVVSPHAFSVRVRRFLQWRFLRAQCAVSEAGAVHYAVCSTVAAGFGDAAVRRDDFPGQLATGKRRPCKWNPYRRPEKRKFVASLRPWFTNAPFVKDALRCSLERERDAQERLRDADDAFFAVAHEMVEKGVHYSHPND reported_result="not soluble"
ordered_residues=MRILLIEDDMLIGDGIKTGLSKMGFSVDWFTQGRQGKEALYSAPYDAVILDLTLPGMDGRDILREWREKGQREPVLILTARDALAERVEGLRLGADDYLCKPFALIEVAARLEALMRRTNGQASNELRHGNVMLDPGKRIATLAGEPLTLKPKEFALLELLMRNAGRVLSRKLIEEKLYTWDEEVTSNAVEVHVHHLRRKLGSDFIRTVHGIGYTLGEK reported_result=soluble
ordered_residues=GPGSMSHNVRPSRYAVSQSKARIFVGQLEPYVTEQDLYPVFSCYGKILHLNIVRHSTTVTPNEERRIPTAFVWYETTTEADAAIAALHNVFTFSSPDEEENKVRYIQVSYADKSPECTPWGRWQKTQAEIMRRTNPSGTGTGSNMPGQYSHITGGGPSTYSSSALNNDGGFTVSATGPAIRSSQSSGDISSMRYPRNPARGLRSMAPHIDHPEVQYYSSYDNLYNLGNRNQLYSMGGAANSMMGYTKHRGMPPHESTSSGDLGRGSTSSFWNMSEEVKKNTAANPNRFRHTARYTAPEPDEDLIMAAPTFTVTSGP reported_result="not soluble"
ordered_residues=SNRKKLQKLTDTLTKNCKHFNKFEVNCLIKLFYDLVGGVERQGLVVGLDRNAFRNILHVTFGMTDDMIMDRVFRGFDKDNDGCVNVLEWIHGLSLFLRGSLEEKMKYCFEVFDLNGDGFISKEEMFHMLKNSLLKQPSEEDPDEGIKDLVEITLKKMDHDHDGKLSFADYELAVREETLLLEAFGPCLPDPKSQMEFEAQVFKDPNEFNDM reported_result=soluble
ordered_residues=SSSEQKSQHCKPEEGVEAQEEALGLVGAQAPTTEEQEAAVSSSSPLVPGTLEEVPAAESAGPPQSPQGASALPTTISFTCWRQPNEGSSSQEEEGPSTSPDAESLFREALSNKVDELAHFLLRKYRAKELVTKAEMLERVIKNYKRCFPVIFGKASESLKMIFGIDVKEVDPTSNTYTLVTCLGLSYDGLLGNNQIFPKTGLLIIVLGTIAMEGDSASEEEIWEELGVMGVYDGREHTVYGEPRKLLTQDWVQENYLEYRQVPGSNPARYEFLWGPRALAETSYVKVLEHVVRVNARVRIAYPSLREAALLEEEEGV reported_result=soluble
ordered_residues=MSTKELEERKVCFFCKILGFLSFPAIKIRIGTPANTISRHLTGFASYCIHLAVGVAHTRPEPELADDSRCYGNILDLVKRKKVTNWTQTRLVVEGKLGEGLRGIAYKVKHRNTMKCLKLLPLSWTSRNKEALEDLVALRSLKTIKKETPNYLTFFDSFVLTNLPASTQDKLNQLDPQCPATHYLGLLVELGSNSLDNTMLTTAVEGLSIVKQLVLSLVIAKRRLDTNHNDVHPGNVLVKRSASPKTLKYTLDGKVIRIPSHGLVVGIIDFSEASFGRANGNSDVGFLSFITEEISKTLSKAENRTFQTAIDGLTDARSITAIYPNASIFKKH reported_result="not soluble"
ordered_residues=STGQGQSASGSSAWSTVFRHVRYENLIAGVSGGVLSNLALHPLDLVKIRFAVSDGLELRPKYNGILHCLTTIWKLDGLRGLYQGVTPNIWGAGLSWGLYFFFYNAIKSYKTEGRAERLEATEYLVSAAEAGAMTLCITNPLWVTKTRLMLQYDAVVNSPHRQYKGMFDTLVKIYKYEGVRGLYKGFVPGLFGTSHGALQFMAYELLKLKYNQHINRLPEAQLSTVEYISVAALSKIFAVAATYPYQVVRARLQDQHMFYSGVIDVITKTWRKEGVGGFYKGIAPNLIRVTPACCITFVVYENVSHFLLDLREKRK reported_result=soluble
ordered_residues=MAHHHHHHMQSTGGLPFYGNLYAGRVDSQNYVPPRQGGSGLLEVDKSLWDNPATRQKLQSCPYFALSDQVMFHNMDPVYLDPGLLSPEEHQLLLLFSRAYYEKWSVIHRRPPHALPRLRITYGSSKLLDEILFLLDVHPDVCEVLKKEYAVDDSTLIGMNPNLWSSAYLDPANMDHLSGRVLEFAGVPEPKRTKFFLLLDQMRRIKVHRRDLPNSEERVDVVPFCYGVTLYDFCKFLGITPYSGQLKVYDYVDLQGTARSETLKDEDSYFDYLVALFYRADVRSATLTDLADASDHTCRYTVTVEPFTTADRRVGRWF reported_result=soluble
ordered_residues=KYIDRAGKLAYDSHIAYHRIKGLSQTVLERVQEAVVVINAEGLAVLFNRKAKDLFPALEIGRRAGLSDSAAELWDQASPHTFEYVLGTPGLNAGIRAVPVNKGSDKLLILYIRPQSEIQAEALSVKLAALGQLTANLAHEIRNPMSAIRHANDLLRENMEAGAADPFNAKLCKIIDGNICRIDKMLEDISSLNKRNKTERETIGLIPFWEEFKQEFLLGHPDAADCIRPDIQGGSPTAYFDPAHLRQIMWNLANNAWRHSRKQPGSISVTIRPAQKNTVCILFADRPKCRNTCSNPFTPRRKTAPASGCMSPANWRTPISAI reported_result="not soluble"

Turning now to a further sequence:
// returns reported soluble on expression in E. coli for input "AHHHHHHGSKVEGFVASLRNAETIDDLFAILKKKGAPVVEFDGMKKLVIVEGDFEGEKFWTEINGAKANLALGDAMLNAASVPFKCKRDFTGGNLILLDFDSIESNEFLIAYVSEKSGVYFHVKAEEVKEITKEEYDELKDRMPEFKAKSYSEEEMEGMGAFFG"
soluble

###

Procedure Details: soluble on expression in E. coli; label from the status in PepcDB or PDB records
Experimental Endpoint: soluble on expression in E. coli

ordered_residues=MSLTRFPVTALRSVDLGTPDLARSEAFYREVWGLERVGTAGGVVYLRATGRDHHVVALHRSARTELRAVTFRVADADDFEAISRNAIEQGATLIAAPAANMAPDGGTIMTLRSPEGGLLRFVHGDIRHDARPSRPELPERLAHVNLNSTDVDRTAAFYARALGFKLTDRSAAMAFVRCNSDHHAVVIAAAKVNGLNHVAFLMPTWEGVMRGSGRMIDAGYPIAWGVGRHGPGDNVFAYFIDPVGTVIEYTAEVLQVDDDYVVRGPEHWVWPPGRTDQWGIAPPKAEHVKAAQLAVGFAAEGHHHHHH reported_result=soluble
ordered_residues=MAHHHHHHMSTRTILTAGEAAEVLASVRYVLLDVDGVLWAGKHVLPNIPETLLYLRLREKQIRFLTNNASISRAGLVREFQRRGIQGVREGEVYNSGFAAALRLQSLFTANKSTGSGRPLVERNIFVIGEEGLHEELRRVLAPGYIAYGMELHDAEKCGGYDAHVVASAWKQRVLPAPLQSSATSCGIAATGHAAGGISISDLSPAAVVVGLDMHFNMLKLAYASLCLQERPAAQTAGTSSSTPTYFIATNEDPQIPVGEDFLLLPGAGGMVSALRTVSGRSPDFVCGKPHVDMAKVFFEAEGITDPQQCLMVGDRLTTDIAFGNAAGCKTMLVLSGAEKMDRVRQAERDGHVSLLPDFIAPSLAIFLPPA reported_result=soluble

###

Procedure Details: soluble on expression in E. coli; label from the status in PepcDB or PDB records
Experimental Endpoint: soluble on expression in E. coli

ordered_residues=GMTKKTGFFKRLKALTLPQKQLFATALCQRMLPNYQLFSEVCEFGDPAVLSTALELLWQSLYDPKLKFNIDVHLQRLEDNTPEPADFEAYGVYPAMDAVVAISTLLGAIQGKIEEDIVNISKLSSSTVANYIEAISDVDLVDEALDDFVFAHEVMEEEKELQNSLLEIIEENPKITAELVKGLRKDIIETGVSNIGISVA experimental_endpoint="soluble on expression in E. coli" reported_result=soluble
ordered_residues=MGSDKIHHHHHHMNNTIPRWRGFNLLEAFSIKSTGNFKEEDFLWMAQWDFNFVRIPMCHLLWSDRGNPFIIREDFFEKIDRVIFWGEKYGIHICISLHRAPGYSVNKEVEEKTNLWKDETAQEAFIHHWSFIARRYKGISSTHLSFNLINEPPFPDPQIMSVEDHNSLIKRTITEIRKIDPERLIIIDGLGYGNIPVDDLTIENTVQSCRGYIPFSVTHYKAEWVDSKDFPVPEWPNGWHFGEYWNREKLLEHYLTWIKLRQKGIEVFCGEMGAYNKTPHDVVLKWLEDLLEIFKTLNIGFALWNFRGPFGILDSERKDVEYEEWYGHKLDRKMLELLRKY experimental_endpoint="soluble on expression in E. coli" reported_result=soluble
ordered_residues=MDYKDDDDKLVDSLRACVFDAYGTLLDVHSAVMRNADEVGASAEALSMLWRQRQLEYSWTRTLMHQYADFWQLTDEALTFALRTYHLEDRKGLKDRLMSAYKELSAYPDAAETLEKLKSAGYIVAILSNGNDEMLQAALKASKLDRVLDSCLSADDLKIYKPDPRIYQFACDRLGVNPNEVCFVSSNAWDLGGAGKFGFNTVRINRQGNPPEYEFAPLKHQVNSLSELWPLLAKNVTKAA experimental_endpoint="soluble on expression in E. coli" reported_result=soluble
